system.under.test: NHERF4_4, Q86UT5
Sequence (Q86UT5 464-550): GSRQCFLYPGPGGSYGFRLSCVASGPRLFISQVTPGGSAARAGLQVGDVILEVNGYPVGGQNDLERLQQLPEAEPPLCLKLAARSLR
method.notes: holdup assay
Set-up: key: below the threshold = too weak to quantify, mostly under pKd 3.1 to 4
run.parameters: plain residues with an end cap or a label only (N-terminal biotin on a linker: ado-ado)
measurement.type: pKd

Which value of pKd has been reported for LKDDELKTKL [SLCO1A2, P46721] in the records?
below the threshold

Which value of pKd has been reported for PYSESDDDWC [CACNA1A, O00555] in the records?
below the threshold

Which value of pKd has been reported for ARGPPRESEV [FAM110D, Q8TAY7] in the records?
below the threshold

Which value of pKd has been reported for DFLSTFHIRI [CIB2, O75838] in the records?
4.58

Which value of pKd has been reported for RQKEVRESKC [SCN8A, Q9UQD0] in the records?
below the threshold

Which value of pKd has been reported for ARSAAASNYV [CLDN4, O14493] in the records?
3.92

Which value of pKd has been reported for AQRARSPSDV [GPR12, P47775] in the records?
below the threshold

Which value of pKd has been reported for TRKRSGEAAV [PFKM, P08237] in the records?
below the threshold

Okay, now this binder:
Which value of pKd has been reported for EIPAQSPTCV [FZD10, Q9ULW2] in the records?
below the threshold

Values from paper PMC9482650
